assayedTarget: T1, Trx-2α (thioredoxin-tagged HIF-2α 1-360, bHLH-PASA-PASB) (UniProt Q99814 1-360)
T1 construct: range 1-360; not shown: Thioredoxin-His6 tag of vector pET32
T1 sequence (Q99814 1-360): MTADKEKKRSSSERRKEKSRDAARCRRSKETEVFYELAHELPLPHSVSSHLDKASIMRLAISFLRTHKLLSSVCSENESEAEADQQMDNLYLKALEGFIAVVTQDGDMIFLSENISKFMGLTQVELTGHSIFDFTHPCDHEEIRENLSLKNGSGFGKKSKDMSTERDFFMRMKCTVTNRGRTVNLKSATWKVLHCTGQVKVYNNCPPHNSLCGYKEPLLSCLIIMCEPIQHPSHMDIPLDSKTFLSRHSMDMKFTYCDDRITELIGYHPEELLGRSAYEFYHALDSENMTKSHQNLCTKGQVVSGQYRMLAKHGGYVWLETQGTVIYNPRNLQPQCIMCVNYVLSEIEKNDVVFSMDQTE
measurementNotes: ELISA, Trx-2α on Ni plate, inhibition of GST-1β binding
measure: IC50 (µM)
Numbers only, in µM.

## Input Suppose we examine the binder CKLIIF (cyclic peptide (first amino acid joined to the last)) [cyclo-CKLIIF (SEQ ID NO 2)] ; what IC50 value has been reported?
## Output 8.8
